substrate: O=C(O)CO; assay: purified protein; conditions: 50 mM Tris-HCl pH 8.0, 0.1 mM FMN, 30 °C
value type: Km (µM)
Give just the number in µM; leave the unit off.

protein="AtGOX1 (Arabidopsis thaliana; T265D) (protein) MEITNVTEYDAIAKQKLPKMVYDYYASGAEDQWTLQENRNAFARILFRPRILIDVSKIDMTTTVLGFKISMPIMVAPTAMQKMAHPDGEYATARAASAAGTIMTLSSWATSSVEEVASTGPGIRFFQLYVYKNRNVVEQLVRRAERAGFKAIALTVDTPRLGRRESDIKNRFTLPPNLTLKNFEGLDLGKMDEANDSGLASYVAGQIDRTLSWKDVQWLQTITKLPILVKGVLTGEDARIAIQAGAAGIIVSNHGARQLDYVPADISALEEVVKATQGRIPVFLDGGVRRGTDVFKALALGASGIFIGRPVVFSLAAEGEAGVRKVLQMLRDEFELTMALSGCRSLKEISRNHITTEWDTPRPSARL" unit_annotation=µM measured_result=531

Shifting focus to the protein that follows.
Ask: So what's the measured Km for this one? AtGOX2 (Arabidopsis thaliana) (protein, full length, N-terminal His-tag, pET28a, expressed in Escherichia coli) MEITNVTEYDAIAKAKLPKMVYDYYASGAEDQWTLQENRNAFARILFRPRILIDVNKIDMATTVLGFKISMPIMVAPTAFQKMAHPDGEYATARAASAAGTIMTLSSWATSSVEEVASTGPGIRFFQLYVYKNRKVVEQLVRRAEKAGFKAIALTVDTPRLGRRESDIKNRFTLPPNLTLKNFEGLDLGKMDEANDSGLASYVAGQIDRTLSWKDIQWLQTITNMPILVKGVLTGEDARIAIQAGAAGIIVSNHGARQLDYVPATISALEEVVKATQGRVPVFLDGGVRRGTDVFKALALGASGIFIGRPVVFALAAEGEAGVKKVLQMLRDEFELTMALSGCRSLSEITRNHIVTEWDTPRHLPRL
Reply: 279

These data points were gathered from paper PMC7020226.
